Values compiled from patent US6903114B2.

Quick reference: log10 IC50 of the listed items.
Molecular target: UniProtKB P21964
Sequence (P21964 51-271, species assumed): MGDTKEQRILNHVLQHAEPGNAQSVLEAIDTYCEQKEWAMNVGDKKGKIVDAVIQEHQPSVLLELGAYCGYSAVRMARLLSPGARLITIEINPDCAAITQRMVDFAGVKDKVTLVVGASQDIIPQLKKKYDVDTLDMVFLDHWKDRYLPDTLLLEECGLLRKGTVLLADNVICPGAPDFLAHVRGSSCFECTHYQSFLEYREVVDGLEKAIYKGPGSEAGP
measure: log10 IC50 (log10 of the value in nM)

In [3]: df
Out[3]:
                                   compound          testedon  reportedresult
0  CC(C)C(=O)c1ccc2c([N+](=O)[O-])c(O)c(O)cc2c1 [Example 4]  UniProtKB P21964            1.40
1  O=C(O)c1ccc2c([N+](=O)[O-])c(O)c(O)cc2c1 [Example 7]  UniProtKB P21964            1.48
2  CCCN(CCC)S(=O)(=O)c1ccc2c([N+](=O)[O-])c(O)c(O)cc2c1 [Example 11]  UniProtKB P21964            1.40
3  CN1CCN(C(=O)c2ccc3c([N+](=O)[O-])c(O)c(O)cc3c2)CC1 [Example 14]  UniProtKB P21964            1.18
4  N#Cc1c(O)c(O)cc2ccccc12 [Example 13, 2,3-Dihydroxy-naphthalene-1-carbonitrile]  UniProtKB P21964            2.00
5  O=[N+]([O-])c1ccc2c([N+](=O)[O-])c(O)c(O)cc2c1 [Example 10, 1,6-Dinitro-naphthalene-2,3-diol]  UniProtKB P21964            1.18
6  O=Cc1c(O)c(O)cc2ccccc12 [Example 8, 2,3-Dihydroxy-naphthalene-1-carbaldehyde]  UniProtKB P21964            2.30
7  O=[N+]([O-])c1c(O)c(O)c(Br)c2ccncc12 [Example 15]  UniProtKB P21964            2.15
